Test system: HeLa cells
Experiment: Cell cycle assay in HeLa cells
Assay type: cell-based, human
Conditions: HeLa cells, 150 nM oligomeric compound, 48 hours after treatment; relative to untreated control (UTC=100)
In the oligonucleotide strings, read from the 5' end, every base follows the letter of its sugar. An asterisk marks phosphorothioate; unmarked linkages are phosphodiester. Other units and linkages are bracketed, terminal groups are in braces. A string of capitals states the bases alone. e = 2'-O-(2-methoxyethyl) (MOE); [5mC] = 5-methylcytosine; d = 2'-deoxy (DNA)
Observation Type: % cells in cell cycle phase: S (%)
Write it as a number; the unit % goes unstated.

// query % cells in cell cycle phase: S value for entry 338769 (antisense GCTTCCCAGCGGCCTATAGT; all 2'-MOE, all phosphorothioate, methylation of C not given here) [compound 338769]
116

// query % cells in cell cycle phase: S value for entry 327957 (antisense e[5mC]*eA*e[5mC]*eA*eA*eG*eT*eT*e[5mC]*eG*eG*eA*eT*e[5mC]*eT*eA*e[5mC]*eG*eG*eG*eT*eT) [compound 327957]
169

// query % cells in cell cycle phase: S value for entry 340350 (antisense TGCTCAATAAATACCCGTTGAA; all 2'-MOE, all phosphorothioate, methylation of C not given here) [compound 340350]
126

// query % cells in cell cycle phase: S value for entry 340927 (antisense eT*eG*eA*eG*e[5mC]*dT*dA*d[5mC]*dA*dG*dT*dG*d[5mC]*dT*dT*e[5mC]*eA*eT*e[5mC]*eT*e[5mC]*eA) [compound 340927]
107

// query % cells in cell cycle phase: S value for entry 338741 (antisense GCTTCACAATTAGACCATCC; all 2'-MOE, all phosphorothioate, methylation of C not given here) [compound 338741]
101

// query % cells in cell cycle phase: S value for entry 327922 (antisense eT*e[5mC]*eA*eG*eT*eT*eT*eT*eG*e[5mC]*eA*eT*eG*eG*eA*eT*eT*eT*eG*e[5mC]*eA*e[5mC]*eA) [compound 327922]
105

// query % cells in cell cycle phase: S value for entry 328749 (antisense e[5mC]*eA*eG*e[5mC]*e[5mC]*dT*dG*d[5mC]*d[5mC]*dA*d[5mC]*d[5mC]*dG*d[5mC]*d[5mC]*eG*e[5mC]*eT*eT*eT) [compound 328749]
129

// query % cells in cell cycle phase: S value for entry 327904 (antisense eA*e[5mC]*eT*e[5mC]*eA*e[5mC]*e[5mC]*eG*eA*e[5mC]*eA*eG*e[5mC]*eG*eT*eT*eG*eA*eA*eT*eG*eT*eT) [compound 327904]
126

// query % cells in cell cycle phase: S value for entry 338690 (antisense TAGACAAAAACAGACTCTGA; all 2'-MOE, all phosphorothioate, methylation of C not given here) [compound 338690]
110

// query % cells in cell cycle phase: S value for entry 338637 (antisense TCAGAGCGGAGAGACACAAG; all 2'-MOE, all phosphorothioate, methylation of C not given here) [compound 338637]
109

// query % cells in cell cycle phase: S value for entry 328362 (eT*eG*eT*eG*eT*dT*dT*dT*d[5mC]*dT*dG*dA*d[5mC]*dT*d[5mC]*eA*eG*eT*e[5mC]*eA) [compound 328362]
104

====

Answer each item with its documented Fold Increase over UTC (caspase-3 activity, apoptosis).
System: T47D cells
Assay: Caspase-3 activity assay (apoptosis) in T47D cells
Settings: T47D cells, 200 nM oligomeric compound, 48 hours; experiment of Table 10
In the oligonucleotide strings, read from the 5' end, every base follows the letter of its sugar. An asterisk marks phosphorothioate; unmarked linkages are phosphodiester. Other units and linkages are bracketed, terminal groups are in braces. A string of capitals states the bases alone. e = 2'-O-(2-methoxyethyl) (MOE); [5mC] = 5-methylcytosine; d = 2'-deoxy (DNA)
Write it as a number; the unit fold goes unstated.

What measured Fold Increase over UTC (caspase-3 activity, apoptosis) is associated with 328436 (antisense eG*eA*eA*eA*eA*dT*dT*dA*dT*dA*dT*dT*dG*dA*d[5mC]*eT*e[5mC]*eT*eG*eA) [compound 328436] on T47D cells?
0.9

What measured Fold Increase over UTC (caspase-3 activity, apoptosis) is associated with 328694 (e[5mC]*eA*eA*eA*e[5mC]*dG*dG*dT*dA*dA*dG*dA*dT*dT*dT*eG*e[5mC]*eA*eG*eA; antisense) [compound 328694] on T47D cells?
0.8

What measured Fold Increase over UTC (caspase-3 activity, apoptosis) is associated with NNNNNNNNNNNNNNNNNNNN [ISIS 29848, reference compound] on T47D cells?
3.0

What measured Fold Increase over UTC (caspase-3 activity, apoptosis) is associated with 328652 (eG*eG*e[5mC]*e[5mC]*eT*dA*dA*dT*dA*dT*d[5mC]*d[5mC]*d[5mC]*dT*dA*e[5mC]*e[5mC]*e[5mC]*e[5mC]*eA; antisense) [compound 328652] on T47D cells?
1.2

What measured Fold Increase over UTC (caspase-3 activity, apoptosis) is associated with 328649 (eG*eT*eA*eG*eA*dT*dA*dA*d[5mC]*dT*dA*dA*dA*d[5mC]*dA*e[5mC]*eT*eA*e[5mC]*e[5mC]; antisense) [compound 328649] on T47D cells?
1.0

What measured Fold Increase over UTC (caspase-3 activity, apoptosis) is associated with 328408 (antisense eT*eA*eG*eA*e[5mC]*dA*dA*dA*dA*dA*d[5mC]*dA*dG*dA*d[5mC]*eT*e[5mC]*eT*eG*eA) [compound 328408] on T47D cells?
0.9

What measured Fold Increase over UTC (caspase-3 activity, apoptosis) is associated with 328672 (eA*eA*eG*eG*e[5mC]*dT*dT*dT*dT*dT*dG*d[5mC]*dT*d[5mC]*dA*eA*eG*eG*eG*e[5mC]; antisense) [compound 328672] on T47D cells?
0.9

What measured Fold Increase over UTC (caspase-3 activity, apoptosis) is associated with 328402 (antisense eT*eT*eG*eA*eA*d[5mC]*dT*d[5mC]*d[5mC]*dA*dT*dG*d[5mC]*d[5mC]*dA*e[5mC]*eA*eA*eG*eG) [compound 328402] on T47D cells?
1.2

What measured Fold Increase over UTC (caspase-3 activity, apoptosis) is associated with 328423 (antisense e[5mC]*e[5mC]*eA*e[5mC]*eA*dT*dA*dT*dA*d[5mC]*dA*dT*dA*dT*dA*eT*eA*e[5mC]*eG*e[5mC]) [compound 328423] on T47D cells?
0.6

What measured Fold Increase over UTC (caspase-3 activity, apoptosis) is associated with 328385 (eA*eG*eT*eG*e[5mC]*dT*dA*dA*dT*dA*d[5mC]*dT*dT*d[5mC]*dT*eT*eT*e[5mC]*eA*eT; antisense) [compound 328385] on T47D cells?
0.9

What measured Fold Increase over UTC (caspase-3 activity, apoptosis) is associated with 328425 (antisense eG*eA*e[5mC]*e[5mC]*eT*dG*d[5mC]*dT*dA*d[5mC]*dT*d[5mC]*dA*d[5mC]*dT*e[5mC]*eT*e[5mC]*eG*eT) [compound 328425] on T47D cells?
0.8

What measured Fold Increase over UTC (caspase-3 activity, apoptosis) is associated with 328375 (eT*eA*e[5mC]*e[5mC]*eA*dT*dA*d[5mC]*dA*dG*dA*dA*dA*d[5mC]*dA*e[5mC]*eA*eG*e[5mC]*eA; antisense) [compound 328375] on T47D cells?
0.9

What measured Fold Increase over UTC (caspase-3 activity, apoptosis) is associated with 328700 (eA*eG*e[5mC]*e[5mC]*eA*dG*dT*dG*dT*dG*dT*dA*dA*dA*dA*eT*eG*eA*eG*eA; antisense) [compound 328700] on T47D cells?
0.8

What measured Fold Increase over UTC (caspase-3 activity, apoptosis) is associated with 328651 (eG*eG*eT*eA*eA*dG*dA*dG*dG*dA*dT*dG*d[5mC]*dG*d[5mC]*eT*eG*e[5mC]*eT*e[5mC]; antisense) [compound 328651] on T47D cells?
0.9

What measured Fold Increase over UTC (caspase-3 activity, apoptosis) is associated with 328395 (antisense e[5mC]*e[5mC]*e[5mC]*eA*eG*dT*dG*dG*dT*dG*dG*dG*dT*dG*dT*eG*eA*e[5mC]*e[5mC]*e[5mC]) [compound 328395] on T47D cells?
1.0

What measured Fold Increase over UTC (caspase-3 activity, apoptosis) is associated with 328422 (antisense eG*eA*eG*eG*eA*dT*dG*dT*d[5mC]*dT*dG*dT*dG*dA*dA*eT*eA*eG*e[5mC]*e[5mC]) [compound 328422] on T47D cells?
1.0

What measured Fold Increase over UTC (caspase-3 activity, apoptosis) is associated with 328431 (antisense eA*e[5mC]*e[5mC]*eT*e[5mC]*dT*d[5mC]*dA*dG*dG*dA*dA*dG*dA*d[5mC]*eG*eG*eA*e[5mC]*eT) [compound 328431] on T47D cells?
0.9

What measured Fold Increase over UTC (caspase-3 activity, apoptosis) is associated with 328383 (eA*eG*eA*eG*eG*dG*dG*dA*dG*dA*d[5mC]*dG*dA*dG*dA*eG*e[5mC]*eA*e[5mC]*eT) [compound 328383] on T47D cells?
1.2

What measured Fold Increase over UTC (caspase-3 activity, apoptosis) is associated with 328399 (antisense eA*eT*eG*eG*eG*dT*dA*d[5mC]*d[5mC]*dA*d[5mC]*d[5mC]*dA*dG*dA*eA*e[5mC]*eA*eT*eG) [compound 328399] on T47D cells?
1.0

What measured Fold Increase over UTC (caspase-3 activity, apoptosis) is associated with 328382 (e[5mC]*eA*eG*eA*e[5mC]*dT*d[5mC]*d[5mC]*d[5mC]*dA*dA*d[5mC]*dT*dG*dA*e[5mC]*e[5mC]*eA*eG*eA) [compound 328382] on T47D cells?
0.9
